// reported inhibition of growth at 50 µM for each item listed
test system: HEp-2; assay: Anticancer activity against human Hep2 cells assessed as growth inhibition at 50 uM after 48 hrs by SRB assay; assay type: functional; settings: HEp-2, 48 h, read-out: GI
Answer by giving the amount and then stating its unit.

Some solved cases for reference:
C[C@H]1[C@H](C)CC[C@]2(C)CC[C@]3(C)C(=CC(=O)[C@@H]4[C@@]5(C)CC[C@@H](OC=O)[C@](C)(C(=O)O)[C@@H]5CC[C@]43C)[C@H]12 : 54%
COC(=O)[C@@]1(C)[C@H](O)CC[C@@]2(C)[C@H]1CC[C@]1(C)[C@@H]2C(=O)C=C2[C@@H]3[C@@H](C)[C@H](C)CC[C@]3(C)CC[C@]21C : 50%

Memo: COC(=O)[C@]1(C)[C@@H]2CC[C@]3(C)[C@H](C(=O)C=C4[C@@H]5[C@@H](C)[C@H](C)CC[C@]5(C)CC[C@]43C)[C@@]2(C)CC[C@@H]1O , reported inhibition of growth at 50 µM: 0%

The values you see were collected from ChEMBL document CHEMBL1932969.
